Provenance of the data: the supplement of paper PMC9170038

test system: MS2 coat protein; test: apparent KD of MS2 coat protein; designed switch direction (-1 OFF switch, 1 ON switch): -1; higher = weaker reporter binding; details: input ligand: none
RECORDED METRIC: apparent KD of MS2 coat protein

Query block: Recall the recorded apparent KD of MS2 coat protein for UUGUACCGGUGAGGAUAUUUUUAAUAGAGCUUUAUGAUAUACAUGAGGAUCACCCAUGUUACUUUAAAGAAGGCAUCGGAUUAU [JL JR Sub091 mod 3] (Eterna round: R96, puzzle: Exclusion NG 2) with MS2 coat protein and state it.
Result block: 20.6 nM

Query block: Recall the recorded apparent KD of MS2 coat protein for AUAAAAGCAGGAUAUGCGCGGUGUGAUGCCGCAUGCUCGUCACAUGAGGAUCACCCAUGUAGAAGGGCUAAAUG [Diramadidi] (Eterna round: R97, puzzle: Exclusion 2) with MS2 coat protein and state it.
Result block: 15.6 nM

Query block: Recall the recorded apparent KD of MS2 coat protein for CUCAUGUCAGGAUAUCAGGCAGGAAGCUGCCAAAAGUGGGAUGAGAAGGGACAUGAGGAUCACCCAUGUAAAUA [Mazasoti] (Eterna round: R97, puzzle: Exclusion 4) with MS2 coat protein and state it.
Result block: 218 nM

Query block: Recall the recorded apparent KD of MS2 coat protein for AGAUGUCCGCAGGAUAUGCGGGCGAGGCCCUAAGCAGAAGGGCGGACAUGAGGAUCACCCAUGUGAGUAAAAGA [EX6 A.23] (Eterna round: R97, puzzle: Exclusion 6) with MS2 coat protein and state it.
Result block: 25.2 nM

Query block: Recall the recorded apparent KD of MS2 coat protein for GCCAGCGUAUAGGAUAUGGCCGGCUUUUGAGUACCAGAAGGAUACACAUGAGGAUCACCCAUGUGGCAUUCGUC [Eternabot (L2) Solution 71] (Eterna round: R97, puzzle: Exclusion 6) with MS2 coat protein and state it.
Result block: 14.7 nM
